- SYSTEM TESTED: HER2 (Homo sapiens, UniProt P04626)
- Construct: purchased #40721
- Sequence (P04626 23-1255): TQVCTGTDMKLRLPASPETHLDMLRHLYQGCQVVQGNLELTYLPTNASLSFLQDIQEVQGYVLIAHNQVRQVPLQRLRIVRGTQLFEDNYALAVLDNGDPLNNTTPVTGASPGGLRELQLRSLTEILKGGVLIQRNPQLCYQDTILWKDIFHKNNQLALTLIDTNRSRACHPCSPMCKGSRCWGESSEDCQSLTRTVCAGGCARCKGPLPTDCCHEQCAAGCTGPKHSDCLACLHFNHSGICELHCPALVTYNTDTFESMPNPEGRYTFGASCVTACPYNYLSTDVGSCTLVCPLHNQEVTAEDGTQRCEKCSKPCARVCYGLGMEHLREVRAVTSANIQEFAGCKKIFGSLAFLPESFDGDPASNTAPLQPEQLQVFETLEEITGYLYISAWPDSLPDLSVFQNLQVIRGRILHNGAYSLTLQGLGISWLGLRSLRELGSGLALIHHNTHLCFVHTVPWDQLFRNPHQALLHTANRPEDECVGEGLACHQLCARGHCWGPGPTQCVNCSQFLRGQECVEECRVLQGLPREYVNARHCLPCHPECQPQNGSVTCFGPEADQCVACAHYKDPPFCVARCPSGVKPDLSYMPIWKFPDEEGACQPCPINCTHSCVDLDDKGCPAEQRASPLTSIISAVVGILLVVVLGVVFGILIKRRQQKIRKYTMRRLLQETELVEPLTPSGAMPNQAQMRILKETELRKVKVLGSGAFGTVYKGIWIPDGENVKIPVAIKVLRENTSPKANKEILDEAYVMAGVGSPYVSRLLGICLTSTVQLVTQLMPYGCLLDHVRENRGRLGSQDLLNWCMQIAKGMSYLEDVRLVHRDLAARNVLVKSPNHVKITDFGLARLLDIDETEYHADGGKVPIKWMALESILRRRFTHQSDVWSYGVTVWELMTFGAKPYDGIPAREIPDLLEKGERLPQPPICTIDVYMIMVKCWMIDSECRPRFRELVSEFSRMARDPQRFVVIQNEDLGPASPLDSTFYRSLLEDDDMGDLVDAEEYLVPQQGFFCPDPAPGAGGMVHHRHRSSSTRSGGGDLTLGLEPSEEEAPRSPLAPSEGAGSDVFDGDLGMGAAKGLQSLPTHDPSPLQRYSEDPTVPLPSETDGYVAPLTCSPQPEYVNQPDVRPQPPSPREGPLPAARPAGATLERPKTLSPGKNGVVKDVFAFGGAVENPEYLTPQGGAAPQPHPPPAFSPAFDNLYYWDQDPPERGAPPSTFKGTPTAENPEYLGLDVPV
- EXPERIMENT DESCRIPTION: HER2 kinase assay kit, Kinase-Glo MAX luminescence
- Assay type: biochemical
- RUN PARAMETERS: 1 µM; one experimental data
READOUT: inhibition at 1 µM (%)
Kindly answer with a numeric value in %, unit omitted.

# COMPOUND, SYSTEM TESTED, inhibition at 1 µM / %
measured = [
    ("NNC(=O)CSc1nc2c(F)cc(F)cc2c(=O)n1Cc1ccccc1", "HER2 (Homo sapiens, UniProt P04626)", 77.3),
    ("CCOC(=O)CSc1nc2ccc(F)cc2c(=O)n1Cc1ccccc1", "HER2 (Homo sapiens, UniProt P04626)", 83.5),
    ("COc1cc2nc(SCC(=O)NN)n(Cc3ccccc3)c(=O)c2cc1OC", "HER2 (Homo sapiens, UniProt P04626)", 84.3),
    ("CCOC(=O)CSc1nc2ccc(Cl)cc2c(=O)n1Cc1ccccc1", "HER2 (Homo sapiens, UniProt P04626)", 74.8),
    ("CCOC(=O)CSc1nc2cc(OC)c(OC)cc2c(=O)n1Cc1ccccc1", "HER2 (Homo sapiens, UniProt P04626)", 83.7),
]

Provide one value: measured inhibition at 1 µM of Cc1cc(Cl)cc2c(=O)n(Cc3ccccc3)c(SCC(=O)NN)nc12 72

Give inhibition at 1 µM for the following compound: NNC(=O)CSc1nc2ccc(Cl)cc2c(=O)n1Cc1ccccc1 82.2

Output inhibition at 1 µM of CS(=O)(=O)CCNCc1ccc(-c2ccc3ncnc(Nc4ccc(OCc5cccc(F)c5)c(Cl)c4)c3c2)o1 [lapatinib, reference compound] 84.3

----------
Here, each record is paired with measured inhibition at 1 µM data.
- SYSTEM TESTED: CDK2/CyclinA2 (Homo sapiens)
- Construct: purchased #79599
- EXPERIMENT DESCRIPTION: CDK2 Assay Kit, Kinase-Glo MAX luminescence
- Assay type: biochemical
- RUN PARAMETERS: 1 µM; one experimental data
Numeric answer only, unit % assumed.

Some compounds with recorded inhibition at 1 µM:
# SMILES STRUCTURE, UNIT SYMBOL, inhibition at 1 µM
data = [
    ("Cc1cc(Cl)cc2c(=O)n(Cc3ccccc3)c(SCC(=O)NN)nc12", "%", 38.4),
    ("CCOC(=O)CSc1nc2c(C)cc(Cl)cc2c(=O)n1Cc1ccccc1", "%", 37.8),
    ("NNC(=O)CSc1nc2c(F)cc(F)cc2c(=O)n1Cc1ccccc1", "%", 70.2),
    ("CCOC(=O)CSc1nc2cc(OC)c(OC)cc2c(=O)n1Cc1ccccc1", "%", 37.8),
]

Supply recorded inhibition at 1 µM for COc1cc2nc(SCC(=O)NN)n(Cc3ccccc3)c(=O)c2cc1OC here. 72.1

----------
Reported values of melting point for individual entries

Here is how some compounds turned out for melting point.
# COMPOUND, melting point
rows = [
    ("CCOC(=O)CSc1nc2ccc(F)cc2c(=O)n1Cc1ccccc1 [2g]", "110 to 111 °C"),
    ("CCOC(=O)CSc1nc2cc(OC)c(OC)cc2c(=O)n1-c1ccccc1 [2d]", "145 to 146 °C"),
    ("NNC(=O)CSc1nc2ccc(Cl)cc2c(=O)n1-c1ccccc1 [3a]", "181 to 183 °C"),
    ("CCOC(=O)CSc1nc2c(F)cc(F)cc2c(=O)n1-c1ccccc1 [2c]", "151 to 153 °C"),
]

Look up and report measured melting point for this entry: CCOC(=O)CSc1nc2ccc(Cl)cc2c(=O)n1-c1ccccc1 [2a] 85 to 87 °C

State its melting point: NNC(=O)CSc1nc2c(F)cc(F)cc2c(=O)n1Cc1ccccc1 [3h] 185 to 186 °C

Determine from records and report melting point for CCOC(=O)CSc1nc2c(C)cc(Cl)cc2c(=O)n1Cc1ccccc1 [2j] 132 to 134 °C

Entry Cc1cc(Cl)cc2c(=O)n(Cc3ccccc3)c(SCC(=O)NN)nc12 [3j] needs its melting point filled in; supply it. 216 to 220 °C

Give me measured melting point, please, for this compound: NNC(=O)CSc1nc2ccc(Cl)cc2c(=O)n1Cc1ccccc1 [3f] 151 to 152 °C

Quickly give me recorded melting point for COc1cc2nc(SCC(=O)NN)n(-c3ccccc3)c(=O)c2cc1OC [3d] 166 to 168 °C

Find the measured melting point of CCOC(=O)CSc1nc2cc(OC)c(OC)cc2c(=O)n1Cc1ccccc1 [2i] and report it. 104 to 105 °C

Quickly give me recorded melting point for NNC(=O)CSc1nc2ccc(F)cc2c(=O)n1-c1ccccc1 [3b] 192 to 194 °C

Check the records and state melting point for NNC(=O)CSc1nc2c(F)cc(F)cc2c(=O)n1-c1ccccc1 [3c] 201 to 203 °C

Give recorded melting point. CCOC(=O)CSc1nc2ccc(F)cc2c(=O)n1-c1ccccc1 [2b] 124 to 127 °C

Check the records and state melting point for CCOC(=O)CSc1nc2ccc(Cl)cc2c(=O)n1Cc1ccccc1 [2f] 73 to 75 °C

State its melting point: CCOC(=O)CSc1nc2c(F)cc(F)cc2c(=O)n1Cc1ccccc1 [2h] 120 to 123 °C

----------
- SYSTEM TESTED: EGFR (Homo sapiens, UniProt P00533)
- Construct: purchased #40321
- Sequence (P00533 25-1210): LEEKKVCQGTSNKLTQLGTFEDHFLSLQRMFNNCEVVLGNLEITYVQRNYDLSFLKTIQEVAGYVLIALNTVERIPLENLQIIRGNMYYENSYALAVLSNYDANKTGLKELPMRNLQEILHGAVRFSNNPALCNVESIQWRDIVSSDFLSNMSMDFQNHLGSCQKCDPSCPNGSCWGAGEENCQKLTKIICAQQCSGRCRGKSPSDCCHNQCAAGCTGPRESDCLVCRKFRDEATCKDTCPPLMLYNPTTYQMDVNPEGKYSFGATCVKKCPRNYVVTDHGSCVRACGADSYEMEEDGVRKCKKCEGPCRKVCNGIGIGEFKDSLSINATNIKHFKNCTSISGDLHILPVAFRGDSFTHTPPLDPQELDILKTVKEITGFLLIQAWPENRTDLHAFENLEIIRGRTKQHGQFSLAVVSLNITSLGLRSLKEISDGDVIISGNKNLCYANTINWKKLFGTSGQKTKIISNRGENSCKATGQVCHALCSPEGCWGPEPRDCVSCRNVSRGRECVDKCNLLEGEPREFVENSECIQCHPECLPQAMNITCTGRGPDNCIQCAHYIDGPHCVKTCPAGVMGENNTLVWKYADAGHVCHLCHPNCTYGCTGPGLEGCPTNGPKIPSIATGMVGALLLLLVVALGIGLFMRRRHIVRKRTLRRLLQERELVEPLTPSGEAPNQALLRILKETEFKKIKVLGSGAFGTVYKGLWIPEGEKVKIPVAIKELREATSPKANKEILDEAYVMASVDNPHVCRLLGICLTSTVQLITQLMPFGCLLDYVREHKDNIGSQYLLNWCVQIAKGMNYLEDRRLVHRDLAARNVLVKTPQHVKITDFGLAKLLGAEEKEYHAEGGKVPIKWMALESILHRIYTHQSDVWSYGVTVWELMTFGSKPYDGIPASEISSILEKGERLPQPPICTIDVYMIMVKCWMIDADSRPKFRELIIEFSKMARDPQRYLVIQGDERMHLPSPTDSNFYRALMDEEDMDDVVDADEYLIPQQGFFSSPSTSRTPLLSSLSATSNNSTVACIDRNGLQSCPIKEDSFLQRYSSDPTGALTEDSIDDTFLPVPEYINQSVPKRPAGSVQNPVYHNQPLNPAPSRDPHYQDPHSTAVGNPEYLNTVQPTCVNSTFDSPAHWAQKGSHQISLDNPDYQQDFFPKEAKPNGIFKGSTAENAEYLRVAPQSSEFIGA
- EXPERIMENT DESCRIPTION: EGFR kinase assay kit, Kinase-Glo MAX luminescence
- Format: biochemical
- RUN PARAMETERS: 0.01 µM; one experimental data
READOUT: inhibition at 0.01 µM (%)
Give just the number in %; leave the unit off.

# SMILES STRUCTURE, READOUT, ASSAY RESULT
data = [
    ("CCOC(=O)CSc1nc2c(C)cc(Cl)cc2c(=O)n1Cc1ccccc1", "inhibition at 0.01 µM", 22.2),
]

Read the entry CCOC(=O)CSc1nc2c(F)cc(F)cc2c(=O)n1Cc1ccccc1 and write its reported inhibition at 0.01 µM. 3.71

Read the entry Cc1cc(Cl)cc2c(=O)n(Cc3ccccc3)c(SCC(=O)NN)nc12 and write its reported inhibition at 0.01 µM. 18.7

Give the value of inhibition at 0.01 µM reported for the following: CCOC(=O)CSc1nc2ccc(Cl)cc2c(=O)n1Cc1ccccc1 2.18

Return inhibition at 0.01 µM for the following compound: NNC(=O)CSc1nc2ccc(Cl)cc2c(=O)n1Cc1ccccc1 3.31

----------
The compounds listed here are annotated with their inhibition at 0.1 µM.
- SYSTEM TESTED: HER2 (Homo sapiens)
- Construct: purchased #40721
- EXPERIMENT DESCRIPTION: HER2 kinase assay kit, Kinase-Glo MAX luminescence
- Assay type: biochemical
- RUN PARAMETERS: 0.1 µM; one experimental data
- Method: The HER2/EGFR/VEGFR2 assay kit is designed to measure HER2/EGFR/VEGFR-2 inhibitory activity for screening and profiling applications, using Kinase-Glo® MAX as a detection reagent. […] After the enzymatic reaction, 50 μl of Kinase-Glo® MAX luminescence kinase assay solution was added to each reaction and the plates were incubated for 5 min at room temperature. […]
Your answer should be a plain number; it is taken to be in %.

See these solved cases before continuing.
# COMPOUND, READOUT, ASSAY RESULT
rows = [
    ("Cc1cc(Cl)cc2c(=O)n(Cc3ccccc3)c(SCC(=O)NN)nc12", "inhibition at 0.1 µM", 39.5),
    ("NNC(=O)CSc1nc2ccc(Cl)cc2c(=O)n1Cc1ccccc1", "inhibition at 0.1 µM", 47.8),
    ("CCOC(=O)CSc1nc2c(F)cc(F)cc2c(=O)n1Cc1ccccc1", "inhibition at 0.1 µM", 38.9),
    ("CCOC(=O)CSc1nc2ccc(F)cc2c(=O)n1Cc1ccccc1", "inhibition at 0.1 µM", 44.2),
    ("CCOC(=O)CSc1nc2cc(OC)c(OC)cc2c(=O)n1Cc1ccccc1", "inhibition at 0.1 µM", 24.4),
]

// below: inhibition at 0.1 µM requested for another compound
Tell me inhibition at 0.1 µM reported for COc1cc2nc(SCC(=O)NN)n(Cc3ccccc3)c(=O)c2cc1OC 20.3

----------
- SYSTEM TESTED: VEGFR2 (Homo sapiens)
- Construct: purchased #40325
- Sequence (P35968 20-1356): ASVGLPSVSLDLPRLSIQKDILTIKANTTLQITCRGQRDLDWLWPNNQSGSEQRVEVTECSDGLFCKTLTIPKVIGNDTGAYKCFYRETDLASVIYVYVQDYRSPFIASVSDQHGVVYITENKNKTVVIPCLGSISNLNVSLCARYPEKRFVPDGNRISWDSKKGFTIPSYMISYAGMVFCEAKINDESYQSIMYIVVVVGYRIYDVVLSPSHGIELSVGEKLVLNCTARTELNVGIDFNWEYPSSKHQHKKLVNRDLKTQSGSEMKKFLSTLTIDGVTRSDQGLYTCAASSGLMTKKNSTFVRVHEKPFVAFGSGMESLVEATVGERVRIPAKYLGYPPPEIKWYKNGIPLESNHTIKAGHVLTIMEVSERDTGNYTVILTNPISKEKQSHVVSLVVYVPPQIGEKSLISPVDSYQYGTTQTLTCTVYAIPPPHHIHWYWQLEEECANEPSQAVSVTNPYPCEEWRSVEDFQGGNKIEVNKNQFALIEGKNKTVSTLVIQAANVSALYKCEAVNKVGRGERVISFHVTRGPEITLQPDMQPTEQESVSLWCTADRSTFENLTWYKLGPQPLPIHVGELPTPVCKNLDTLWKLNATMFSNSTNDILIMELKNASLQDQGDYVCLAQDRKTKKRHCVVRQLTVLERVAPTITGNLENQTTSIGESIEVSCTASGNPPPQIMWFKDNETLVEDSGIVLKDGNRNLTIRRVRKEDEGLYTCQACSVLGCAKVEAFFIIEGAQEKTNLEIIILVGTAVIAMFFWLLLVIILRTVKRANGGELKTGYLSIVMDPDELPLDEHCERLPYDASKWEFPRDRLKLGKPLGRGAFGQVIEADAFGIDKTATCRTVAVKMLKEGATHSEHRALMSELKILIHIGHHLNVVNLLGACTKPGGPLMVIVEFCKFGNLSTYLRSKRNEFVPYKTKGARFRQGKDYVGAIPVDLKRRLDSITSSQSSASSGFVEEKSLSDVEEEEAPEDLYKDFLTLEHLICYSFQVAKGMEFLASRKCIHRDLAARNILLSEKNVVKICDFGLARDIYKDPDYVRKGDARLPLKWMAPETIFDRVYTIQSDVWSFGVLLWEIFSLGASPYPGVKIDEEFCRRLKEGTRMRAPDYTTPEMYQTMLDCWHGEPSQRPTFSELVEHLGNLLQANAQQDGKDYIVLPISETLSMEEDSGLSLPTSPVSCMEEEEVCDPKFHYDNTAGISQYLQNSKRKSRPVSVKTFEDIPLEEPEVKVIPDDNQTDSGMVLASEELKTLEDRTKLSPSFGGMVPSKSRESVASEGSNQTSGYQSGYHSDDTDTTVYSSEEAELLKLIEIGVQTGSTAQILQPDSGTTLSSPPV
- EXPERIMENT DESCRIPTION: VEGFR2 kinase assay kit, Kinase-Glo MAX luminescence
- Assay type: biochemical
- RUN PARAMETERS: 1 µM; one experimental data; read-out: % Inhibition VEGFR-2
- Method: The HER2/EGFR/VEGFR2 assay kit is designed to measure HER2/EGFR/VEGFR-2 inhibitory activity for screening and profiling applications, using Kinase-Glo® MAX as a detection reagent. […] After the enzymatic reaction, 50 μl of Kinase-Glo® MAX luminescence kinase assay solution was added to each reaction and the plates were incubated for 5 min at room temperature. […]
# cutoff 40% applies to inhibition at 1 µM; >= gives True, < gives False

# COMPOUND, CATEGORY LABEL
measured = [
    ("CCOC(=O)CSc1nc2cc(OC)c(OC)cc2c(=O)n1Cc1ccccc1 [2i]", "False"),
    ("NNC(=O)CSc1nc2c(F)cc(F)cc2c(=O)n1Cc1ccccc1 [3h]", "False"),
]

Now turn to the next compound.
Reported inhibition at 1 µM at or above 40%? CCOC(=O)CSc1nc2c(F)cc(F)cc2c(=O)n1Cc1ccccc1 [2h] True

src = paper PMC8462848
